molecular target: hiNOS (Homo sapiens); assay: DAN assay, hiNOS expressed in transiently transfected HEK293 cells; conditions: HEK293 cells transiently transfected with hiNOS
pEC50: −log10 of the molar value. Structures can show the parent of a compound that is named as a salt.
Catalogue of pEC50 values
Metric Name: pEC50

[[record]]
compound = "CN(CCCNCc1ccccc1)c1nc(-n2ccnc2)ns1"
test_result = "< 4.30"

[[record]]
compound = "CN(C)C(=O)CN(CCCNCc1ccc2c(c1)OCO2)c1nc(-n2ccnc2)ns1"
test_result = "> 6.00"

[[record]]
compound = "Cc1cc(C2CCCN2CCNCc2ccc3c(c2)OCO3)nc(-n2ccnc2)n1 (centres unmarked) [Example 39]"
test_result = "> 6.00"

[[record]]
compound = "Cc1cc(C2CCC(=O)N2CCNCc2ccc3c(c2)OCO3)nc(-n2ccnc2)n1 (centres unmarked) [Example 138, hydrochloride]"
test_result = "> 6.00"

[[record]]
compound = "Cc1cc(CNC(=O)C2CCCN2Cc2ccc3c(c2)OCO3)nc(-n2ccnc2)n1 (centres unmarked)"
test_result = "< 4.30"

[[record]]
compound = "CCOC(=O)c1csc(C2CCN(CCNCc3ccc4c(c3)OCO4)C2c2cc(C)nc(-n3ccnc3)n2)n1 (centres unmarked)"
test_result = "> 6.00"

[[record]]
compound = "CN(CCCNCCc1ccc2c(c1)OCCO2)c1nc(-n2ccnc2)ns1"
test_result = "> 6.00"

[[record]]
compound = "COc1ccc(CNCCCN(C)c2nc(-n3ccnc3)ns2)cc1OC"
test_result = "< 4.30"

